system: OVCAR-8; experiment: NCI tumour cell line growth inhibition, 48 h
The source made the active and inactive calls. No stated cut-off is given here; in the data, active = GI50 up to about 1.1 µM and inactive = higher.
Possible outcomes: active, inactive

>  <compound>
O=C(O)C1CC2C=CCC(C2)C1 (configuration not stated)

>  <group>
inactive

$$$$
>  <compound>
NC(=S)N/N=C1/C(=O)N(c2ccccc2)C(=O)C1C(=O)Nc1ccccc1 (configuration not stated)

>  <group>
inactive

$$$$
>  <compound>
CC(=O)OC1C=CC2CCN3C(=O)c4cc5c(cc4[C@H]1C23)OCO5 (some centres not stated)

>  <group>
inactive

$$$$
>  <compound>
CN/N=C(/CCN1CCCC1)CC(c1ccccc1)c1c(O)c2ccccc2oc1=O (configuration not stated)

>  <group>
inactive

$$$$
>  <compound>
Nc1nc(NCc2ccccc2)cc(NCc2ccccc2)n1

>  <group>
inactive

$$$$
>  <compound>
COc1ccc(-c2cc(N3CCN(c4ccccc4)CC3)c(C#N)c(=O)o2)cc1

>  <group>
inactive

$$$$
>  <compound>
CCOC(=O)CC[C@H](N)C(=O)N[C@@H](Cc1ccc(N(CCCl)CCCl)cc1)C(=O)OCC

>  <group>
active

$$$$
>  <compound>
Cc1cc(N(CCC#N)CCC#N)ccc1/C=C1N=C(/C=C\c2ccccc2)N(c2ccc(Cl)cc2)C\1=O

>  <group>
inactive

$$$$
>  <compound>
CC(=O)Oc1ccc2c(c1)O/C(=C\c1ccc(N(C)C)cc1)C2=O

>  <group>
inactive

$$$$
>  <compound>
CC(C)=CCC[C@@H](C)C1=C(O)C(=O)C(C)=C(Nc2ccccc2I)C1=O

>  <group>
inactive

$$$$
>  <compound>
CSc1nc2ccccc2c(=O)n1/N=C1\C(=O)N(CN2CCCCC2)c2ccc(Cl)cc21

>  <group>
inactive

$$$$
>  <compound>
NC1=NC(c2ccc(Cl)cc2)N(c2ccc(S(=O)(=O)Nc3ncccn3)cc2)C(N)=N1 (configuration not stated)

>  <group>
inactive

$$$$
>  <compound>
O=S1(=O)c2ccccc2NC(c2ccc3ccccc3c2)CC1c1ccccc1F (configuration not stated)

>  <group>
inactive

$$$$
>  <compound>
O=C(Cn1c(=O)ccn(C2OC(CO)C(O)C2F)c1=O)c1ccc(F)cc1 (configuration not stated)

>  <group>
inactive

$$$$
>  <compound>
O=C1CCCCC1C1(O)C(=O)Nc2cc(F)ccc21 (configuration not stated)

>  <group>
inactive

$$$$
>  <compound>
CC1=C(/C(C)=N/NC(=O)c2ccccc2O)C(C)C(/C(C)=N/NC(=O)c2ccccc2O)=C(C)N1

>  <group>
inactive

$$$$
>  <compound>
COc1cc(Br)c(C2OCCCO2)cc1OCc1ccccc1

>  <group>
inactive

$$$$
